Tested on: ATS189
method-notes: qHTS profiling for inhibitors of Plasmodium falciparum proliferation (AID 504749);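 note: 0% = DMSO vehicle and full inhibition = artemisinin control; nearly all actives have a fitted effect of over 60% in size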
condition-summary: P. falciparum in erythrocytes, SYBR Green DNA, 72 h; series mostly up to 12.8 µM
Results filed as inconclusive are left out. The source made the active and inactive calls. Calls come from the whole dose curve; as a rule, active = well fitted inhibition curve with a large enough effect; inconclusive = small, poorly fitted or top-dose-only effect; inactive = flat fitted curve, though single readings scatter.
value-type: outcome

[[record]]
compound = "NC(=O)N[C@H]1NC(=O)NC1=O"
data_value = "inactive"

[[record]]
compound = "COc1ccc2cc(C(C)CO)ccc2c1 (stereo unspecified)"
data_value = "inactive"

[[record]]
compound = "C=CCN1C(=CCO)[C@H]2C[C@H]3[C@@H]1CC[C@@]31c3ccccc3N3C=C4[C@@H]5N(/C=C/2[C@H]31)c1ccccc1[C@]51CC[C@H]2[C@H]1C[C@@H]4/C(=C/CO)N2CC=C"
data_value = "inactive"

[[record]]
compound = "CC1(C)S[C@H]2C(NC(=O)[C@@H](N)c3ccc(O)cc3)C(=O)N2[C@@H]1C(=O)O (stereo partly specified)"
data_value = "inactive"

[[record]]
compound = "NC[C@@H]1O[C@@H](O[C@H]2[C@H](O)[C@H](O[C@@H]3O[C@H](CO)[C@@H](O)[C@H](N)[C@@H]3O)[C@@H](N)C[C@H]2N)[C@H](N)C[C@@H]1O"
data_value = "inactive"


For CC1CCC(C(C)C)C(=O)C1 (stereo unspecified) , what is its reported outcome?
inactive

====

tested-on: Rap guanine nucleotide exchange factor 3 (Homo sapiens) (UniProt O95398)
Sequence (O95398 whole entry, looked up): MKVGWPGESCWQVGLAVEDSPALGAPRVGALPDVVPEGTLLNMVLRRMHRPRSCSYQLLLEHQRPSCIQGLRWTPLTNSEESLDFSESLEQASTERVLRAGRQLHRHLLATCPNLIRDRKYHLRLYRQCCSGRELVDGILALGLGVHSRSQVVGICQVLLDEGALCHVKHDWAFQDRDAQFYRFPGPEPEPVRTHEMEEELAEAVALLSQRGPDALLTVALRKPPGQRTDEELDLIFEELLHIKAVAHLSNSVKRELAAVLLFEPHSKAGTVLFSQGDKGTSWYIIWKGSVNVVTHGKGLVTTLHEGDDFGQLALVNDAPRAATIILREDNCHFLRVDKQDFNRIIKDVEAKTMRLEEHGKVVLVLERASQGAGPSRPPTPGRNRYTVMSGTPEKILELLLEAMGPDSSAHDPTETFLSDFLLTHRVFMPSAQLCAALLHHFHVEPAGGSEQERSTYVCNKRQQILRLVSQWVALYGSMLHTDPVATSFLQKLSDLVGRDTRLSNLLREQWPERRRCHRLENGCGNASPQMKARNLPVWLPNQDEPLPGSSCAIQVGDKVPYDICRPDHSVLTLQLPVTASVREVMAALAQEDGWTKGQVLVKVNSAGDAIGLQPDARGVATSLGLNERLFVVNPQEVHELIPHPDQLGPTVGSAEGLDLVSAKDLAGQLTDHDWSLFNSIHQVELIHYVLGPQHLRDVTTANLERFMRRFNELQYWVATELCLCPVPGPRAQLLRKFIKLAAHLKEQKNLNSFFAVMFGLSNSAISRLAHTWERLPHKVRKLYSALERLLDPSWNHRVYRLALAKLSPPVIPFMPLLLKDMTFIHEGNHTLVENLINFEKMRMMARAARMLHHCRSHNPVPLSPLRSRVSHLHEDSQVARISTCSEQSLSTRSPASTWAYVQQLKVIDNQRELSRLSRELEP
method-notes: Confirmatory qHTS for agonist of cAMP-regulated guanine nucleotide exchange factor 3 (EPAC1) (AID 1645881);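 note: EPAC1 catalysed release of BODIPY-GDP from Rap1B seen as fluorescence loss; 100% = effect of cAMP agonist control; nearly all actives have a fitted effect of over 75% in size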
condition-summary: EPAC1 Rap1B BODIPY-GDP exchange fluorescence; series mostly up to 154 µM
Records with an inconclusive call do not appear. The source made the active and inactive calls. Calls come from the whole dose curve; as a rule, active = well fitted activation curve with a large enough effect; inconclusive = small, poorly fitted or top-dose-only effect; inactive = no such curve, though single readings can be large or run the other way.
Select the matching outcome among true (1) = active, false (0) = inactive

// below: answered compounds
[[record]]
compound = "COCCn1cnnc1SCC(=O)Nc1sc2c(c1C#N)CCC2"
tested_on = "Rap guanine nucleotide exchange factor 3 (Homo sapiens) (UniProt O95398)"
qualitative_label = "false (0)"

[[record]]
compound = "CC[C@H]1C(c2ccc(F)cc2)=NN(c2ccccc2)[C@@H]1CO"
tested_on = "Rap guanine nucleotide exchange factor 3 (Homo sapiens) (UniProt O95398)"
qualitative_label = "false (0)"

[[record]]
compound = "CCOC(=O)c1cc2c(=O)n3ccccc3nc2n(Cc2ccco2)c1=NC(=O)c1ccc(Br)cc1"
tested_on = "Rap guanine nucleotide exchange factor 3 (Homo sapiens) (UniProt O95398)"
qualitative_label = "false (0)"


Here is another compound to look at.
Identify the outcome logged in this assay for the compound shown: Cc1cc(OC(C)C(=O)NCCc2c[nH]c3ccccc23)c2c(C)cc(=O)oc2c1 (stereo unspecified)
false (0)

====

Recorded activity change, negative = inhibition, one value per entry.
method-notes: NFAT Signaling Pathway (AID 444);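 note: carbachol stimulus at about its EC50 of 1 µM final; % is set by controls: 0 for no effect and ±100 for the full control effect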
condition-summary: Jurkat NFAT-bla M1, carbachol, beta-lactamase ratio, 5 h; at 17.2 µM (top of the series) unless noted
Inconclusive results are not listed.
Provide the reading as a plain figure in %.

[[record]]
compound = "CC1(C)S[C@@H]2[C@H](NC(=O)COc3ccccc3)C(=O)N2[C@H]1C(=O)O (tested in a mixture with another compound)"
unit_label = "%"
data_value = -7.06

[[record]]
compound = "C[C@@H](C(=O)O)c1ccc(C(=O)c2ccccc2)s1"
unit_label = "%"
data_value = 4.12

[[record]]
compound = "Clc1cnccn1"
unit_label = "%"
data_value = -22.8

[[record]]
compound = "C[C@H](N)CCCC(C)(C)O"
unit_label = "%"
data_value = -3.85

[[record]]
compound = "CN1CCC[C@@H](CC2c3ccccc3Sc3ccccc32)C1"
unit_label = "%"
data_value = -49.6

[[record]]
compound = "C=CCN1C(=CCO)[C@H]2C[C@H]3[C@@H]1CC[C@@]31c3ccccc3N3C=C4[C@@H]5N(/C=C/2[C@H]31)c1ccccc1[C@]51CC[C@H]2[C@H]1C[C@@H]4/C(=C/CO)N2CC=C"
unit_label = "%"
data_value = -23.2

[[record]]
compound = "CS(=O)(=O)c1ccc([C@H](O)[C@H](CF)NC(=O)C(Cl)Cl)cc1"
unit_label = "%"
data_value = 1.9

[[record]]
compound = "S=C(NC1CCCCC1)N1CCC([C@H]2C=NC=N2)CC1"
unit_label = "%"
data_value = -11


For CN[C@@H]1[C@H](O[C@H]2[C@@H](O[C@@H]3[C@@H](O)[C@@H](O)[C@@H](N=C(N)N)[C@@H](O)[C@@H]3N=C(N)N)O[C@@H](C)[C@]2(O)CO)O[C@H](CO)[C@@H](O)[C@@H]1O , what is its reported activity change, negative = inhibition?
1.68

For COc1cc(N)c(Cl)cc1C(=O)N[C@H]1CCN(CCCOc2ccc(F)cc2)C[C@H]1OC , what is its reported activity change, negative = inhibition?
-12.4
